target: Factor Xa; test: selectivity inhibition assay
Starred links: 1 amine or outer side, 2 acyl side, 3 side chain; linkers in the order of their positions; H or OH if unused. No end group written: not given here. *: point of attachment. Kbt‑6‑CONH = ketobenzothiazole-6-CONH (amide link to Val), O=C(c1ccc2nc([*:1])sc2c1)[*:2]; kbt = C-terminal ketobenzothiazole, c1ccc2sc(*)nc2c1; Kbt = ketobenzothiazole, c1ccc2sc(*)nc2c1; Fmoc = O=C(OCC1c2ccccc2-c2ccccc21)*
Note to self: Ki under 10 nM means yes, ties and anything higher get no.

binder	classification
Fmoc-Leu-Arg-kbt [Fmoc-LR-kbt]	no
H-WRLR-kbt (SMILES CC(C)C[C@H](NC(=O)[C@H](CCCNC(=N)N)NC(=O)[C@@H](N)Cc1c[nH]c2ccccc12)C(=O)N[C@@H](CCCNC(=N)N)C(=O)c1nc2ccccc2s1) [H-WRLR(SEQ ID NO: 9)-Kbt]	yes
Ac-KRLR-{Kbt-Benzyl‑4‑COOMe} [Ac-KRLR(SEQ ID NO: 8)-kbt-Benzyl-4-COOMe]	yes
Ac-SKLR (not fully specified (C-terminus)) [Ac-SKLR(SEQ ID NO: 10)-Kbt-Phe-NH2]	no
Ac-KQLR-{Kbt‑6‑CONH-Val-NH2} [Ac-KQLR(SEQ ID NO: 1)-Kbt-Val-NH2]	no

Attention now turns to another entry.
q: Please determine if Ac-FLFR-Kbt (SMILES CC(=O)N[C@@H](Cc1ccccc1)C(=O)N[C@@H](CC(C)C)C(=O)N[C@@H](Cc1ccccc1)C(=O)N[C@@H](CCCNC(=N)N)C(=O)c1nc2ccccc2s1) [Ac-FLFR(SEQ ID NO: 19)-Kbt] is below 10 nM in terms of Ki.
a: no
